Test system: MDA-MB-435
ASSAY_OVERVIEW: Cytotoxicity against human MDA-MB-435 cells after 24 hrs by SRB assay
Type: functional
PARTICULARS: MDA-MB-435, 24 h
Entries annotated with measured GI50
MEASURED_METRIC: GI50 (nM)

QUERY_SMILES: O=C(/C=C/c1cc2ccccc2[nH]c1=O)c1ccc(O)cc1
UNIT_INFO: nM
RESULT_VALUE: 2940
//
QUERY_SMILES: O=C(/C=C/c1cc2ccccc2[nH]c1=O)/C=C/c1cc2ccccc2[nH]c1=O
UNIT_INFO: nM
RESULT_VALUE: 258
//
QUERY_SMILES: O=C(/C=C/c1cc2ccccc2[nH]c1=O)c1ccc(Cl)cc1
UNIT_INFO: nM
RESULT_VALUE: 2830
//
QUERY_SMILES: COc1ccc(C(=O)/C=C/c2cc3ccccc3[nH]c2=O)cc1
UNIT_INFO: nM
RESULT_VALUE: 3920
